System: SF-295 CNS
Test: NCI tumour cell line growth inhibition, 48 h
READOUT LABEL: TGI (µM)
# unit: µM | format: bare number

May I ask what TGI has been recorded for COC(=O)c1c(O)ccc2c1c1c(n2Cc2ccccc2)C(=O)c2ccccc2C1=O ? 36.3

Again, but for Cn1c([N+](=O)[O-])cnc1/C=C1\Oc2ccccc2C1=O 6.19

Again, but for CCOC(=O)Nc1nc2ccc(Cn3cccc3)cc2[nH]1 20

Again, but for CN1C2CCC1CC(CCOC(c1ccc(F)cc1)c1ccc(F)cc1)C2 (configuration not stated) 30.8

Again, but for COc1cc(/C=C/C(=O)CC(=O)/C=C/c2cc(OC)c(OC)c(OC)c2)cc(OC)c1OC 17.2

Again, but for COc1ccc2c(c1)/C(=C\c1c(C)nc3n1CCS3)C(=O)N2 98.9

Again, but for CSc1ccc(C2=NN(C(=O)c3ccc(F)cc3)C(c3ccc(F)cc3)C2)cc1 (configuration not stated) 33.7

Again, but for COc1cc(C(=O)/C(C)=C/c2c[nH]c3ccccc23)cc(OC)c1OC 1.61

Again, but for N#C/C(=C\c1cn(Cc2ccccc2)c2ccccc12)c1nn(-c2ccccc2)c(N)c1C#N 26.4

Again, but for ClCc1cccc(Cn2cnc3c(NC45CC6CC(CC(C6)C4)C5)ncnc32)c1 33.3

# credit: PubChem BioAssay (NCI)
